- Tested on: SF-539 CNS
- ASSAY_SUMMARY: NCI tumour cell line growth inhibition, 48 h
READOUT: TGI (µM)

{"COMPOUND": "CC1CC(c2ccc(Cl)c(Cl)c2)=Nc2ccccc2S1 (centres undefined)", "TARGET_DESC": "SF-539 CNS", "VALUE_MODIFIER": ">", "MEASURED_RESULT": 100}
{"COMPOUND": "NCCNCCCNC(=O)c1cc(-c2ccccc2)nc2ccccc12", "TARGET_DESC": "SF-539 CNS", "VALUE_MODIFIER": "=", "MEASURED_RESULT": 36.7}
{"COMPOUND": "CC(=O)O[C@H]1C(=O)[C@@]2(C)C(C(OC(=O)c3ccccc3)[C@]3(O)CC(OC(=O)C(O)C(NC(=O)c4ccccc4)c4cccc(Cl)c4)C(C)=C1C3(C)C)[C@]1(OC(C)=O)CO[C@@H]1C[C@@H]2O (some centres undefined)", "TARGET_DESC": "SF-539 CNS", "VALUE_MODIFIER": "=", "MEASURED_RESULT": 9.73}
{"COMPOUND": "Cc1ccc(NC(=O)C(=O)CC(=O)c2ccccc2)cc1C", "TARGET_DESC": "SF-539 CNS", "VALUE_MODIFIER": ">", "MEASURED_RESULT": 100}
{"COMPOUND": "COc1ccc(/C=C2\\CCc3cc(OC)c(OC)cc3C2=O)cc1", "TARGET_DESC": "SF-539 CNS", "VALUE_MODIFIER": ">", "MEASURED_RESULT": 10}
{"COMPOUND": "COc1cc(-c2nn(-c3cccc(NC(=O)CCN4CCN(C)CC4)c3)cc2-c2ccncc2)ccc1Cl", "TARGET_DESC": "SF-539 CNS", "VALUE_MODIFIER": "=", "MEASURED_RESULT": 3.06}
{"COMPOUND": "CC(=O)Oc1ccc(/C=C/C(=O)OCCOC(=O)/C=C/c2ccc(OC(C)=O)c(OC(C)=O)c2)cc1OC(C)=O", "TARGET_DESC": "SF-539 CNS", "VALUE_MODIFIER": "=", "MEASURED_RESULT": 13.4}
{"COMPOUND": "O=C(NC(Cc1ccc(I)cc1)C(=O)O)c1ccc(Cl)cc1 (centres undefined)", "TARGET_DESC": "SF-539 CNS", "VALUE_MODIFIER": ">", "MEASURED_RESULT": 100}
{"COMPOUND": "CCN1C(=O)N(CC)C2C1NN=c1s/c(=C\\c3ccc(OC)cc3)c(=O)n12 (centres undefined)", "TARGET_DESC": "SF-539 CNS", "VALUE_MODIFIER": "=", "MEASURED_RESULT": 0.545}

====

- Test system: UO-31 renal
- ASSAY_SUMMARY: NCI tumour cell line growth inhibition, 48 h
Overview of reported GI50 across a group of compounds:
READOUT: GI50

{"COMPOUND": "O=C1NC(=N[C@H](CO)c2ccccc2)S/C1=C\\c1ccc2ncccc2c1", "READOUT": "GI50", "MEASURED_RESULT": "4.61 µM"}
{"COMPOUND": "CN1CCN(c2ccc(Nc3ncc4cc5n(c4n3)C3(CCCCC3)CNC5=O)nc2)CC1", "READOUT": "GI50", "MEASURED_RESULT": "0.67 µM"}
{"COMPOUND": "CCOC(=O)c1cc(-c2ccccc2)[nH]c1N/N=C/c1c(Cl)cccc1Cl", "READOUT": "GI50", "MEASURED_RESULT": "1.34 µM"}
{"COMPOUND": "CNCCN(C)Cc1cn[nH]c1-c1ccc(OC2CC(OCCC3CCOCC3)C2)cc1 (centres undefined)", "READOUT": "GI50", "MEASURED_RESULT": "28 µM"}
{"COMPOUND": "O=C(c1ccco1)c1c(C(F)(F)F)n([O-])c2ccc(F)cc2[n+]1=O", "READOUT": "GI50", "MEASURED_RESULT": "1.6 µM"}
{"COMPOUND": "FC(F)(F)c1ccc(NCc2nc3ccccc3[nH]2)cc1", "READOUT": "GI50", "MEASURED_RESULT": "30.4 µM"}
{"COMPOUND": "CCN(CCO)CCCOc1ccc2c(Nc3cc(CC(=O)Nc4cccc(F)c4)[nH]n3)ncnc2c1", "READOUT": "GI50", "MEASURED_RESULT": "> 100 µM"}
{"COMPOUND": "COC(=O)[C@]12CC[C@@H](C)[C@H](C)[C@@H]1C1=CC[C@@H]3[C@@]4(C)CC(=O)[C@H](O)[C@@](C)(CO)[C@@H]4C(=O)C[C@@]3(C)[C@]1(C)CC2", "READOUT": "GI50", "MEASURED_RESULT": "5.7 µM"}
{"COMPOUND": "COc1ccc(/C=C2/CN(CCC#N)C/C(=C\\c3ccc(OC)cc3)C2=O)cc1", "READOUT": "GI50", "MEASURED_RESULT": "1.74 µM"}

====

- Tested on: NCI/ADR-RES ovarian
- ASSAY_SUMMARY: NCI tumour cell line growth inhibition, 48 h

{"MOLECULE": "CC/C(=N/N=C(N)N)c1ccc(NC(=O)Nc2ccc(/C(CC)=N/N=C(N)N)cc2)cc1", "TARGET_DESC": "NCI/ADR-RES ovarian", "GI50": "24.7 µM"}
{"MOLECULE": "CC1COCCN1CC#CCOC(=O)c1cc2ccccc2oc1=O (stereo unspecified)", "TARGET_DESC": "NCI/ADR-RES ovarian", "GI50": "> 100 µM"}
{"MOLECULE": "CNCCNc1nc2ccccc2c2c(=O)c3cccc(C)c3sc12", "TARGET_DESC": "NCI/ADR-RES ovarian", "GI50": "1.76 µM"}
{"MOLECULE": "COc1cc(NC(=O)c2ccccc2Nc2ccnc(C(F)(F)F)c2)cc(OC)c1OC", "TARGET_DESC": "NCI/ADR-RES ovarian", "GI50": "32.3 µM"}
{"MOLECULE": "Cc1[nH]n(-c2cccc(Cl)c2)c(=O)c1/C=C1\\C=c2ccccc2=CC1=O", "TARGET_DESC": "NCI/ADR-RES ovarian", "GI50": "> 100 µM"}
{"MOLECULE": "CCCc1n(Cc2ccc3ccccc3n2)cc[n+]1Cc1ccc2ccccc2n1", "TARGET_DESC": "NCI/ADR-RES ovarian", "GI50": "> 100 µM"}
{"MOLECULE": "COc1cc(NC(C)CCCN2C(=O)c3ccccc3C2=O)c2ncccc2c1OC (stereo unspecified)", "TARGET_DESC": "NCI/ADR-RES ovarian", "GI50": "24 µM"}
{"MOLECULE": "Oc1cccc(-c2nc(-c3ccccc3)[nH]c2-c2ccncc2)c1", "TARGET_DESC": "NCI/ADR-RES ovarian", "GI50": "> 25 µM"}
{"MOLECULE": "CCN(CCO)CCCOc1ccc2c(Nc3cc(CC(=O)Nc4cccc(F)c4)[nH]n3)ncnc2c1", "TARGET_DESC": "NCI/ADR-RES ovarian", "GI50": "> 100 µM"}
{"MOLECULE": "Cc1cc(C#Cc2ccccc2)ccc1-n1c(/C=C/c2cc(O)ccc2O)nc2ccccc2c1=O", "TARGET_DESC": "NCI/ADR-RES ovarian", "GI50": "2.06 µM"}
{"MOLECULE": "O=C(Nc1ccccc1)Nc1ccc(Cl)c(Cl)c1", "TARGET_DESC": "NCI/ADR-RES ovarian", "GI50": "3.05 µM"}
{"MOLECULE": "O=C1NC(=N[C@H](CO)c2ccccc2)S/C1=C\\c1ccc2ncccc2c1", "TARGET_DESC": "NCI/ADR-RES ovarian", "GI50": "> 19.3 µM"}
{"MOLECULE": "CCOC(=O)c1cc(-c2ccccc2)[nH]c1N/N=C/c1c(Cl)cccc1Cl", "TARGET_DESC": "NCI/ADR-RES ovarian", "GI50": "0.509 µM"}
{"MOLECULE": "Cc1cc2c(cc1Cl)SC(C(=O)c1ccc(Cl)c(Cl)c1)NS2(=O)=O (stereo unspecified)", "TARGET_DESC": "NCI/ADR-RES ovarian", "GI50": "38.6 µM"}
{"MOLECULE": "COc1ccc2c(c1)C(=O)c1c-2c(N2CCN(C(=O)CCNCCNCCO)CC2)nc2ccccc12", "TARGET_DESC": "NCI/ADR-RES ovarian", "GI50": "18 µM"}
{"MOLECULE": "CNCCN(C)Cc1cn[nH]c1-c1ccc(OC2CC(OCCC3CCOCC3)C2)cc1 (stereo unspecified)", "TARGET_DESC": "NCI/ADR-RES ovarian", "GI50": "> 100 µM"}
